# system.tested: AKT1 E17K (Homo sapiens (Human), UniProt P31749, E17K)
# Sequence (P31749 whole entry E17K): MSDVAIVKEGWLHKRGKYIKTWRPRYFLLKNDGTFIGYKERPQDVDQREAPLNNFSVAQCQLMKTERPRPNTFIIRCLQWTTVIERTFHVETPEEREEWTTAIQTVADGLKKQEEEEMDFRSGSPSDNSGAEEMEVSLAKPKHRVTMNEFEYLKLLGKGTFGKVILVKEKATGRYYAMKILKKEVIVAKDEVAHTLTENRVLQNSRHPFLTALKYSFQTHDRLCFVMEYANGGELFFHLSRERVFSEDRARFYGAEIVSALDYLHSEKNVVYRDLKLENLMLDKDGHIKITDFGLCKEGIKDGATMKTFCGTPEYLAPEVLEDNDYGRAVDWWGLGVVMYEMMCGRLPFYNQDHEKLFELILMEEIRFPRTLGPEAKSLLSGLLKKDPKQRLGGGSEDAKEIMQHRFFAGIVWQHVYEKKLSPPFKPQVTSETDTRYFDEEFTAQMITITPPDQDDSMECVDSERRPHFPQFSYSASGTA
# test.details: Live cell target engagement (NanoBRET) in HEK293 cells
# Type: cell-based
reported.endpoint: AKT1 E17K IC50: Selectivity vs AKT2
Number, no unit, nothing else.

Q. Please report the measured AKT1 E17K IC50: Selectivity vs AKT2 for Nc1ncccc1-c1nc2cc(-c3ccccc3)cnc2n1-c1ccc(CNCCc2ccc(C=O)c(O)c2)cc1 [Compound 124]
A. 13

###

# system.tested: AKT1 E17K (Homo sapiens (Human), UniProt P31749, E17K)
# test.details: Live cell target engagement (NanoBRET) in HEK293 cells
# Type: cell-based
AKT1 E17K IC50: Selectivity vs AKT1 WT values by entry

Nc1ncccc1-c1nc2ccc(-c3ccccc3)nc2n1-c1ccc(CNC(=O)Cc2ccc(C=O)c(O)c2Cl)cc1	1.2
CN(C)C(=O)Nc1cc(CC(=O)NCc2ccc(-n3c(-c4cccnc4N)nc4cccnc43)cc2)ccc1C=O	4.5

Q. Please report the measured AKT1 E17K IC50: Selectivity vs AKT1 WT for "Nc1ncccc1-c1nc2ccc(-c3ccccc3)nc2n1-c1ccc(CNC(=O)c2ccc(O)c(C=O)c2F)cc1"
A. 2

Q. Please report the measured AKT1 E17K IC50: Selectivity vs AKT1 WT for "Nc1ncccc1-c1nc2ccc(-c3ccccc3)nc2n1-c1ccc(CNCCc2cc(O)c(C=O)cc2F)cc1"
A. 0.15

###

# system.tested: AKT1 E17K (Homo sapiens (Human), UniProt P31749, E17K)
# test.details: Live cell target engagement (NanoBRET) in HEK293 cells
# Format: cell-based
reported.endpoint: AKT1 E17K IC50: Selectivity vs AKT1 WT
Number, no unit, nothing else.

Guide cases for AKT1 E17K IC50: Selectivity vs AKT1 WT, answers given:
CC(C)(O)C#Cc1ccc2nc(-c3cccnc3N)n(-c3ccc(CNC(=O)Cc4ccc(C=O)c(O)c4)cc3)c2n1	3.8
COc1cc(CCNCc2ccc(-n3c(-c4cccnc4N)nc4ccc(-c5ccccc5)nc43)cc2)ccc1C=O	0.56
Nc1ncccc1-c1nc2ccc(C3CC3)nc2n1-c1ccc(CNCCc2ccc(C=O)c(O)c2)cc1	2.4
Nc1ncccc1-c1nc2ccc(N3CCOCC3)nc2n1-c1ccc(CNC(=O)c2ccc(O)c(C=O)c2)cc1	2.2
Nc1ncccc1-c1nc2ccc(-c3ccccc3)nc2n1-c1ccc(CCNCCc2ccc(C=O)c(O)c2)cc1	2

Q. Please report the measured AKT1 E17K IC50: Selectivity vs AKT1 WT for "Nc1ncccc1-c1nc2ccc(-c3cccc(N4CCOCC4)c3)nc2n1-c1ccc(CNC(=O)Cc2ccc(C=O)c(O)c2Cl)cc1"
A. 1.2

Q. Please report the measured AKT1 E17K IC50: Selectivity vs AKT1 WT for "Nc1ncccc1-c1nc2ccc(-c3ccccc3)nc2n1-c1ccc(N2CC(NCc3ccc(C=O)c(O)c3)C2)cc1"
A. 1.5

Q. Please report the measured AKT1 E17K IC50: Selectivity vs AKT1 WT for "Nc1ncccc1-c1nc2ccc(OC3CC3)nc2n1-c1ccc(CNC(=O)Cc2ccc(C=O)c(O)c2)cc1"
A. 3.9

Q. Please report the measured AKT1 E17K IC50: Selectivity vs AKT1 WT for "Nc1ncccc1-c1nc2ccc(-c3ccccc3)nc2n1-c1ccc(CNC(=O)c2cc(Cl)c(O)c(C=O)c2)cc1"
A. 1.2
